Molecular target: DP receptor (Homo sapiens)
Construct: Blood was collected from the cubital vein of a healthy adult; endogenous in cells
Sequence (Q13258 whole entry): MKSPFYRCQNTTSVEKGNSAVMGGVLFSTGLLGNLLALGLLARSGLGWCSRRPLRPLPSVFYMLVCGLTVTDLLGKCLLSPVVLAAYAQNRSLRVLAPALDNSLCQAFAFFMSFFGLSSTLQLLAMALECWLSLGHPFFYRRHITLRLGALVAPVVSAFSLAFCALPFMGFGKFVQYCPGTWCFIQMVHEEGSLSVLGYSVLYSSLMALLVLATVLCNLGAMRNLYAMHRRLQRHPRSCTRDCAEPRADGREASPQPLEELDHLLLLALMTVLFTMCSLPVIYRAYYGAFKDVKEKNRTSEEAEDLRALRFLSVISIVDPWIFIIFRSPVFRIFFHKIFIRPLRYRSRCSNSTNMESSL
Assay: Measurement of DP receptor antagonistic activity using human platelet-rich plasma (PRP); inhibition of PGD2-stimulated cAMP production
Conditions: human PRP, 3 μmol/L PGD2 stimulation
readout-label: IC50 (nM)

Cc1cc(OC[C@@H]2CN(C)c3ccccc3O2)cc(C)c1C(=O)Nc1cc(C2(C(=O)O)CC2)ccc1Cl [Comparative compound 4]: 6.5

(1) CCc1cc(OC[C@@H]2CN(C)c3ccccc3O2)cc(C)c1C(=O)Nc1cc(C2(C(=O)O)CC2)ccc1C(F)(F)F [Example 21]
(2) Cc1cc(OC[C@@H]2CN(C)c3ccccc3O2)cc(C)c1C(=O)Nc1cc(C2(C(=O)O)CC2)ccc1C(F)(F)F [Example 12]
(3) Cc1cc(OC[C@@H]2CN(C)c3ccccc3O2)cc(C)c1C(=O)Nc1cccc(CC(=O)O)c1 [Comparative compound 1]
Inquiry: Could you please order the items by IC50, going from the lowest number to the highest? # format: label list in the order the request specifies
Reply text: 1, 2, 3

(A) Cc1cc(OC[C@@H]2CN(C)c3ccccc3O2)cc(C)c1C(=O)Nc1cc(CC(=O)O)ccc1Cl [Comparative compound 3]
(B) Cc1cc(OC[C@@H]2CN(C)c3ccccc3O2)cc(C)c1C(=O)Nc1cc(CC(=O)O)ccc1C(F)(F)F [Example 24]
Inquiry: // which entry has the larger IC50 value, A or B ? In your reply, give the label of the chosen option.
Reply text: B
(B: 8.9 nM, A: 4 nM)
